Entries and their glass transition temperature values follow.

- COMPOUND: "*c1cccc(P(=O)(c2cccc(-n3c(=O)c4c(-c5cc(C(F)(F)F)cc(C(F)(F)F)c5)c5c(=O)n(*)c(=O)c5c(-c5cc(C(F)(F)F)cc(C(F)(F)F)c5)c4c3=O)c2)c2cc(C(F)(F)F)cc(C(F)(F)F)c2)c1 (repeat unit)"
  glass transition temperature, °C: 293.00
- COMPOUND: "*c1ccc(Oc2ccc(C(c3ccc(Oc4ccc(-c5nnc(*)c6c(-c7ccc(F)cc7)c(-c7ccc(F)cc7)c(-c7ccc(F)cc7)c(-c7ccc(F)cc7)c56)cc4)cc3)(C(F)(F)F)C(F)(F)F)cc2)cc1 (repeat unit)"
  glass transition temperature, °C: 288.00
- COMPOUND: "*CC(*)C(=O)OCCCCCCCC (repeat unit) [Poly(n-octyl acrylate) ]"
  glass transition temperature, °C: -65
- COMPOUND: "*[O][Sn]([CH2]CCC)([CH2]CCC)[O]C(=O)/C=C/C(*)=O (repeat unit)"
  glass transition temperature, °C: 186.00
- COMPOUND: "*c1ccc(OCCN(CCOc2ccc(-c3nc4ccc(Oc5ccc6nc(*)c(-c7ccccc7)nc6c5)cc4nc3-c3ccccc3)cc2)c2ccc(/N=N/c3ccc([N+](=O)[O-])cc3)cc2)cc1 (repeat unit)"
  glass transition temperature, °C: 199.00
- COMPOUND: "*C1C=CC(*)CC1 (repeat unit)"
  glass transition temperature, °C: 125.50

---

Entries and their glass transition temperature values follow.
READOUT_TYPE: glass transition temperature (°C)

- MOLECULE: "*C(=O)Nc1ccc(Oc2cccc(NC(=O)c3ccc4c(c3)C(=O)N(c3ccc(Oc5ccc6ccc(Oc7ccc(N8C(=O)c9ccc(*)cc9C8=O)cc7)cc6c5)cc3)C4=O)c2)cc1 (repeat unit)"
  ENDPOINT_VALUE: 263.00
- MOLECULE: "*CC(F)(F)C(F)(F)COC(=O)NCCCCCCNC(=O)O* (repeat unit)"
  ENDPOINT_VALUE: 9.00
- MOLECULE: "*CCCCCCCCNC(=O)CCCCCCCCC(=O)N* (repeat unit)"
  ENDPOINT_VALUE: 54.00
- MOLECULE: "*C(=O)Nc1ccc(NC(=O)c2ccc3c(c2)C(=O)N(c2ccc(Oc4ccc(N5C(=O)c6ccc(*)cc6C5=O)cc4)cc2)C3=O)c(OCCCCCCS(=O)(=O)c2ccc(/C=C/c3ccc(N(C)C)cc3)cc2)c1 (repeat unit)"
  ENDPOINT_VALUE: 192.00
- MOLECULE: "*CCCC(=O)NNC(=O)c1ccc(C(=O)NNC(=O)CCCOc2ccc(O*)c(C)c2)cc1 (repeat unit)"
  ENDPOINT_VALUE: 139.00
- MOLECULE: "*CC(c1ccccc1)C1C(=O)N(c2ccc(NC(=O)OCC3CCCN3c3ccc([N+](=O)[O-])cc3)cc2)C(=O)C1* (repeat unit)"
  ENDPOINT_VALUE: 208.00
- MOLECULE: "*Oc1ccc(OC(=O)c2ccc([Si](C)(C)c3ccc(C(*)=O)cc3)cc2)cc1 (repeat unit)"
  ENDPOINT_VALUE: 176.00
- MOLECULE: "*Oc1ccc(S(=O)(=O)c2ccc(Oc3ccc(C(C)(C)c4ccc(*)c(N)c4)cc3N)cc2)c(N)c1 (repeat unit)"
  ENDPOINT_VALUE: 237.10

---

- COMPOUND: "*Nc1ccc(Cc2ccc(NC(=O)NCCCCCCCCCCCCNC(*)=O)cc2)cc1 (repeat unit)"
  glass transition temperature / °C: 51.00
- COMPOUND: "*CCCCCCCCCCC(=O)Nc1ccc(Oc2ccc(Oc3ccc(NC(=O)CCCCCCCCCCN4C(=O)c5ccc(C(=O)c6ccc7c(c6)C(=O)N(*)C7=O)cc5C4=O)cc3)cc2)cc1 (repeat unit)"
  glass transition temperature / °C: 122.00
- COMPOUND: "*CCCCCCCCCCCCCNC(=O)CCCCCCCCCCCC(=O)N* (repeat unit)"
  glass transition temperature / °C: 56.50
- COMPOUND: "*Oc1cccc(NC(=O)c2ccc(C(=O)Nc3ccc(*)cc3)cc2)c1 (repeat unit)"
  glass transition temperature / °C: 280.00
- COMPOUND: "*c1ccc(NC(=O)Nc2ccc(NC(=O)Nc3ccc(-c4nc(-c5ccc([N+](=O)[O-])cc5)[nH]c4*)cc3)cc2)cc1 (repeat unit)"
  glass transition temperature / °C: 292.00
- COMPOUND: "*CCCP(CCCCCCCC)CCCNC(=O)CCCCC(=O)N* (repeat unit)"
  glass transition temperature / °C: 12.00
- COMPOUND: "*c1ccc(-c2sc(-c3cc(SCCCCCCCCCCCC)c(*)s3)cc2SCCCCCCCCCCCC)cc1 (repeat unit)"
  glass transition temperature / °C: 65.40
- COMPOUND: "*CC(*)C(N)=O (repeat unit) [Poly(acrylamide)]"
  glass transition temperature / °C: 178.92

---

- COMPOUND: "*c1cccc(-c2nc3cc(-c4ccc5c(c4)nc(*)n5C)ccc3[nH]2)c1 (repeat unit)"
  glass transition temperature [°C]: 346.66
- COMPOUND: "*c1ccc(-c2nc3cc4nc(-c5ccccc5)c(*)nc4cc3nc2-c2ccccc2)cc1 (repeat unit)"
  glass transition temperature [°C]: 395.00
- COMPOUND: "*CC(COc1ccccc1)O* (repeat unit)"
  glass transition temperature [°C]: 42.00
- COMPOUND: "*Oc1ccc(Oc2cccc(*)n2)cc1 (repeat unit)"
  glass transition temperature [°C]: 100.00

---

Entries and their glass transition temperature values follow.

- COMPOUND: "*Nc1ccc(Nc2ccc(C(O)(c3ccccc3)c3ccc(C(O)(c4ccccc4)c4ccc(*)cc4)cc3)cc2)cc1 (repeat unit)"
  glass transition temperature / °C: 200.00
- COMPOUND: "*c1ccc2c(c1)C(=O)N(c1cc(N3C(=O)c4ccc(C(*)(C(F)(F)F)C(F)(F)F)cc4C3=O)ccc1OCCCCCCOc1ccc(/N=N/c3ccc(OCC)cc3)cc1)C2=O (repeat unit)"
  glass transition temperature / °C: 198.00
- COMPOUND: "*c1ccc(Oc2ccc(Oc3ccc(N4C(=O)c5ccc(Oc6ccc(Oc7ccc(Oc8ccc9c(c8)C(=O)N(*)C9=O)cc7)cc6)cc5C4=O)cc3)cc2)cc1 (repeat unit)"
  glass transition temperature / °C: 203.00

---

- MOLECULE: "*Oc1ccc(S(=O)(=O)c2ccc(Oc3ccc(-c4ccc(Oc5ccc(C(=O)c6ccc(*)cc6)cc5)cc4)cc3)cc2)cc1 (repeat unit)"
  MEASURE_UNIT: "°C"
  glass transition temperature: 206.00
- MOLECULE: "*OS(=O)(=O)c1cc(C)c(*)c(C)c1 (repeat unit)"
  MEASURE_UNIT: "°C"
  glass transition temperature: 153.00
- MOLECULE: "*c1cc(C)c(*)s1 (repeat unit)"
  MEASURE_UNIT: "°C"
  glass transition temperature: 114.20
- MOLECULE: "*CC(CO*)(CSCC)CSCC (repeat unit)"
  MEASURE_UNIT: "°C"
  glass transition temperature: -32.00
- MOLECULE: "*OP(=O)(Oc1ccc(C(C)(C)c2ccc(*)cc2)cc1)Oc1c(Cl)cccc1Cl (repeat unit)"
  MEASURE_UNIT: "°C"
  glass transition temperature: 96.00
- MOLECULE: "*C(=O)Nc1cccc(P(=O)(c2ccccc2)c2cccc(NC(=O)c3ccc4c(c3)C(=O)N(c3cccc(P(=O)(c5ccccc5)c5cccc(N6C(=O)c7ccc(*)cc7C6=O)c5)c3)C4=O)c2)c1 (repeat unit)"
  MEASURE_UNIT: "°C"
  glass transition temperature: 206.00
- MOLECULE: "*CCCCCCCCCC(=O)N* (repeat unit)"
  MEASURE_UNIT: "°C"
  glass transition temperature: 42.42
- MOLECULE: "*N=P(*)(CCC)CCC (repeat unit)"
  MEASURE_UNIT: "°C"
  glass transition temperature: 10.00

---

Entries and their glass transition temperature values follow.
READOUT_TYPE: glass transition temperature

- COMPOUND: "*CC(C)(C)C(=O)O* (repeat unit)"
  READOUT_TYPE: "glass transition temperature"
  ENDPOINT_VALUE: "-12.00 °C"
- COMPOUND: "*Oc1ccc(C2(c3ccc(OC(*)=O)cc3)CCCCCC2)cc1 (repeat unit)"
  READOUT_TYPE: "glass transition temperature"
  ENDPOINT_VALUE: "155.00 °C"
- COMPOUND: "*CCOCCOP(=O)(/N=N/c1ccc(C(=O)c2ccc(/N=N/P(=O)(O*)OC)cc2)cc1)OC (repeat unit)"
  READOUT_TYPE: "glass transition temperature"
  ENDPOINT_VALUE: "33.00 °C"
- COMPOUND: "*Nc1ccc(C(=O)c2ccc(NC(=O)c3cccc(C(*)=O)c3)cc2)cc1 (repeat unit)"
  READOUT_TYPE: "glass transition temperature"
  ENDPOINT_VALUE: "253.20 °C"
- COMPOUND: "*Oc1c(F)c(F)c(COC(c2cccc(C(OCc3c(F)c(F)c(Oc4ccc(Cc5ccc(*)cc5)cc4)c(F)c3F)(C(F)(F)F)C(F)(F)F)c2)(C(F)(F)F)C(F)(F)F)c(F)c1F (repeat unit)"
  READOUT_TYPE: "glass transition temperature"
  ENDPOINT_VALUE: "94.00 °C"
